Provenance of the data: ChEMBL document CHEMBL1124904

# Species: Cavia porcellus
# PROTOCOL_SUMMARY: Evaluated for its potency in Guinea pig trachea (GPT) spirals in the presence of increasing concentrations
# Assay type: functional
# DETAILS: Cavia porcellus, Trachea
READOUT_LABEL: Kb (nM)
Answer with a number only, understood to be in nM.

Look over these answered cases.
> print(dat)
                                   compound  readout.label  data.value
1  CCCCCCCC(=O)NCC(=O)NCC1C2CCC(O2)C1C/C=C/CCCC(=O)O (single isomer, unassigned; (-))             Kb           3
2  CCCCCC/C(S)=N/CC(=O)NCC1C2CCC(O2)C1C/C=C/CCCC(=O)O (centres undefined)             Kb         4.4
3  CCCCCCCCC(=O)NCC(=O)NCC1C2CCC(O2)C1C/C=C/CCCC(=O)O (centres undefined)             Kb         1.4

// next entry
Req: Query: Kb; subject: CCCCCCC(=O)NCC(=O)NCC1C2CCC(O2)C1C/C=C/CCCC(=O)O (single isomer, unassigned; (+))
Resp: 174
